Measured target: PI3K δ (Homo sapiens)
Sequence (O00329 whole entry): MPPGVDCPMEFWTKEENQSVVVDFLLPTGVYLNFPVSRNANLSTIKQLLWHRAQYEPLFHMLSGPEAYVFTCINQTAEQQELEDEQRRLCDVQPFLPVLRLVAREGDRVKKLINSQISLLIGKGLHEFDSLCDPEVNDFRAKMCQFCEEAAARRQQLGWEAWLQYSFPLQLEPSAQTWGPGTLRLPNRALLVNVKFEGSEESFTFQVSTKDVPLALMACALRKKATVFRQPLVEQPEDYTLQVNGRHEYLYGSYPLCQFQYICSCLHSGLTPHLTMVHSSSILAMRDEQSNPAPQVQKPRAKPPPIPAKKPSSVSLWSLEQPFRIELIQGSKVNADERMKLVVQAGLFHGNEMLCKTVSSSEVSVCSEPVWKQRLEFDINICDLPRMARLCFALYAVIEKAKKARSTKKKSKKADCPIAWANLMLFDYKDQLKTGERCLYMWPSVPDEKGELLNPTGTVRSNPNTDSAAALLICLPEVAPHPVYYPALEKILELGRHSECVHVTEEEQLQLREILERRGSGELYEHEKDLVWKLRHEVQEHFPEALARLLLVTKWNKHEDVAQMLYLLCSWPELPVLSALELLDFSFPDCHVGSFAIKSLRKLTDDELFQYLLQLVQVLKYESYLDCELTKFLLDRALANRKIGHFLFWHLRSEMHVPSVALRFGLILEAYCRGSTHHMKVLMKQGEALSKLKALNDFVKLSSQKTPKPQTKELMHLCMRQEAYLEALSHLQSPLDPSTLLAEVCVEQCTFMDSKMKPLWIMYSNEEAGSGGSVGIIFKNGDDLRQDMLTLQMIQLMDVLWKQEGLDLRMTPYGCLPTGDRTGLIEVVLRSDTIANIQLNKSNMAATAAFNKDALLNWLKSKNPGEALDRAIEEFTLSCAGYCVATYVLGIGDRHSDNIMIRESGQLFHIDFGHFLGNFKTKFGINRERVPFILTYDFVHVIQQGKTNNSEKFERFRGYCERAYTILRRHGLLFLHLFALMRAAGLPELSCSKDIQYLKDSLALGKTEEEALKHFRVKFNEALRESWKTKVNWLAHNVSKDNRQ
Sequence (P27986 whole entry partner): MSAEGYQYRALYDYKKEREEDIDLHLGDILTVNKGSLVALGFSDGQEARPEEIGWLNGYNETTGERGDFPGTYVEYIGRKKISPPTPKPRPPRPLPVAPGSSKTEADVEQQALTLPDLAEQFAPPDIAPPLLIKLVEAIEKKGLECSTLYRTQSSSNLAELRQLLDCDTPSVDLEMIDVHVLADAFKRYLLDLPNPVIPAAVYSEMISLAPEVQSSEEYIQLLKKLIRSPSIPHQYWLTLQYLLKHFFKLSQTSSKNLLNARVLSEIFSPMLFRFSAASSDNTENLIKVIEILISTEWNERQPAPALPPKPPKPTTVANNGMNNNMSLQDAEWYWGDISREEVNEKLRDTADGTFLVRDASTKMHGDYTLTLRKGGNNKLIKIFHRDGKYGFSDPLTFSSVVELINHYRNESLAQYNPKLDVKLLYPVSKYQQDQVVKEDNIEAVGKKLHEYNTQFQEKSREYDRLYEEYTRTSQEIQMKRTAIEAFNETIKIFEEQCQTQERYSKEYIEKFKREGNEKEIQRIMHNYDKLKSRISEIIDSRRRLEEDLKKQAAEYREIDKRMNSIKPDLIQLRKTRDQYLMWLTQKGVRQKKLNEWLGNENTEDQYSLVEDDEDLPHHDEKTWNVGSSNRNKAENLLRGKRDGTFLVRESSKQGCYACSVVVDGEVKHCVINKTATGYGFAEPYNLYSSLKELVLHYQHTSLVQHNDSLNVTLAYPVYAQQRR
Experiment notes: PI 3-Kinase (human) HTRF assay, PI3K δ
Condition parameters: read-out: PI3K δ IC50
Parameter: IC50

Item smiles: CN1CCN(CCNC(=O)c2cnc3ccc(-c4ccc5oc(N)nc5c4)cn23)CC1
Parameter: IC50
Endpoint value: < 1000 nM
//
Item smiles: CCOC(=O)Cn1nc(-c2cc3cc(O)ccc3[nH]2)c2c(N)ncnc21
Parameter: IC50
Endpoint value: > 500 nM
//
Item smiles: Nc1nc2cc(-c3ccc4ncc(C(=O)N5CC[C@@H](O)C5)n4c3)ccc2o1
Parameter: IC50
Endpoint value: < 10000 nM

Could you now look at the following compound, please?
Ask: Report IC50 from PI3K δ (Homo sapiens) testing of COc1cccc2cc(-c3nn(C4CCN(C(=O)C5CC5)CC4)c4ncnc(N)c34)[nH]c12
Reply: > 500 nM

###

Measured target: PI3K γ (Homo sapiens, UniProt P48736)
Sequence (P48736 whole entry): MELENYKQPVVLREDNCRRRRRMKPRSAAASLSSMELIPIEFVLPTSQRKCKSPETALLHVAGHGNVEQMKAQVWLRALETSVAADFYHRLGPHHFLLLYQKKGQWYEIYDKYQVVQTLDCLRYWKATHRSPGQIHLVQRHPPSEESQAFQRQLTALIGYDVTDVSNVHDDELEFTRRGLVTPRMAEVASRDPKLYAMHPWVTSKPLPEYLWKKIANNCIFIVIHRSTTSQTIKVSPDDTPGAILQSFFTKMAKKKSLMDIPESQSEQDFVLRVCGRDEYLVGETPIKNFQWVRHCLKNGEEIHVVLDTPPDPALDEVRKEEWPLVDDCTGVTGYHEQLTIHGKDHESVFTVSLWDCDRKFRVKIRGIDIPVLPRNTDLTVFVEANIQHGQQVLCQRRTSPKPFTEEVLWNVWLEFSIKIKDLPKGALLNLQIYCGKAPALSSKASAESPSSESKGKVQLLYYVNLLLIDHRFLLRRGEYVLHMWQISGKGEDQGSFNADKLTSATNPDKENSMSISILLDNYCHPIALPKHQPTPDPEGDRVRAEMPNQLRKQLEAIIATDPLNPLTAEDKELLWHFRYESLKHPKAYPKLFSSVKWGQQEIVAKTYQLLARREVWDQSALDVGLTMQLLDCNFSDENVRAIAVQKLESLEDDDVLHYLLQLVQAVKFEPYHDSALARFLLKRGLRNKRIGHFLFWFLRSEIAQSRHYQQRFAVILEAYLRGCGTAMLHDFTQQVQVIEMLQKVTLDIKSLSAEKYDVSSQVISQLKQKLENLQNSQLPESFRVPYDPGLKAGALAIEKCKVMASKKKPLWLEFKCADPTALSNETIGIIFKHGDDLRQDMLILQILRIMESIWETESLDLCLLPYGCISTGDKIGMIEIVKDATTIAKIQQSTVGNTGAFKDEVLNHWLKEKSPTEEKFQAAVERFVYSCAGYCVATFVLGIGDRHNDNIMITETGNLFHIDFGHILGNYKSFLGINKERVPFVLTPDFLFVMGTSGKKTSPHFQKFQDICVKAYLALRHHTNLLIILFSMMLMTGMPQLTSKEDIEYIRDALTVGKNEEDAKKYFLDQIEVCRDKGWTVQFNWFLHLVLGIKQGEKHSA
Experiment notes: PI 3-Kinase (human) HTRF assay, PI3K γ
pIC50: −log10 of the molar value.
Parameter: pIC50

Item smiles: C=Cc1oc(NC(C)=O)nc1/C=C/c1nn(C)c2ncnc(N)c12
pIC50: > 6.00

Ask: Return value of pIC50 for input C[C@H]1CN(c2cnc3scc(-c4ccc5oc(N)nc5c4)c3n2)CCN1 , no commentary.
Reply: < 5.00

Ask: Give pIC50 for the following molecule: CCN1CCN(C(=O)c2cnc3ncc(-c4ccc5oc(N)nc5c4)cn23)CC1
Reply: > 5.00

Ask: Could you please provide reported pIC50 for Nc1nc2cc(-c3ccc4ncc(N5CCNC(=O)C5)nc4n3)ccc2o1 ? Thanks!
Reply: > 7.00

Ask: Look up pIC50 of Nc1nc2cc(-c3ccc4ncc(C(=O)NCCOCCO)n4c3)ccc2o1 and report it.
Reply: > 6.00

Ask: Provide measured pIC50 value, entry: C[C@H]1CN(c2cnc3ccc(-c4ccc5oc(N)nc5c4)cc3n2)CCN1
Reply: > 5.00

Ask: Identify pIC50 associated with the molecule Nc1nsc2cc(-c3ccc4nccc(-c5ccncc5)c4c3)ccc12
Reply: > 6.00

###

Measured IC50, listed per entry for reference.
Measured target: mTOR (Homo sapiens)
Construct: purchased Invitrogen
Sequence (P42345 1360-2549 limits assumed): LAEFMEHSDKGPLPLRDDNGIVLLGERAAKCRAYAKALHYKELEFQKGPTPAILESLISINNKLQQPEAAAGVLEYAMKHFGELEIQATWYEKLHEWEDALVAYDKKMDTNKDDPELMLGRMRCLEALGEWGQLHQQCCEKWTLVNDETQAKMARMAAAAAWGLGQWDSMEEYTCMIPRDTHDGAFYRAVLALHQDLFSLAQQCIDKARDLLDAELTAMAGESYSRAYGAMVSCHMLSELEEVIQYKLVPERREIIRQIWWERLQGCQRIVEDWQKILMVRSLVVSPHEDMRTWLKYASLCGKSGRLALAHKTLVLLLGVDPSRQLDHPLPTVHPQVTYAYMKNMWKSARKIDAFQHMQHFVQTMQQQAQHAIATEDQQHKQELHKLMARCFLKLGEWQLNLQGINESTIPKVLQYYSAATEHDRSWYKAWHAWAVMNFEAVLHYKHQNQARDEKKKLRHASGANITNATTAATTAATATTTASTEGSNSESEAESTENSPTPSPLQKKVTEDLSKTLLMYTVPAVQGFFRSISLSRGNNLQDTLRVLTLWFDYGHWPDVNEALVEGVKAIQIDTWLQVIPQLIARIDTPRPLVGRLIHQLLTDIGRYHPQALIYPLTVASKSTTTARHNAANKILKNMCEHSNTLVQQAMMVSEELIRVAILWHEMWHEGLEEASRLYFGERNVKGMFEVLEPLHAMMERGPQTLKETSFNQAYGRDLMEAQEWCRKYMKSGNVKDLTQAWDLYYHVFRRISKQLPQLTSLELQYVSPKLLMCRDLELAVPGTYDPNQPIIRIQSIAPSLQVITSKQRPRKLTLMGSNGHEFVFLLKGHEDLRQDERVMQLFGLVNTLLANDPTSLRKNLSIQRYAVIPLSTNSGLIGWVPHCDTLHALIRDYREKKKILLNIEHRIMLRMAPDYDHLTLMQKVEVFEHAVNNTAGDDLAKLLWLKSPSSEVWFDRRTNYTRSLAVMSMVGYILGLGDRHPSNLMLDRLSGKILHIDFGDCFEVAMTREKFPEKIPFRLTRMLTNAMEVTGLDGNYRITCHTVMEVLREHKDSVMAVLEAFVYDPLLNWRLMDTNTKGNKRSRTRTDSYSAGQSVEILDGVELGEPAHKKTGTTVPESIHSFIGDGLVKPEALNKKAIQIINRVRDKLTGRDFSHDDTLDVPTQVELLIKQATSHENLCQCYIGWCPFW
Experiment notes: mTOR kinase inhibition assay (radiometric or LanthaScreen TR-FRET)
Type: biochemical
Condition parameters: Table 2; read-out: mTORC IC50

# example entries with known answers
Molecule: CC(=O)N1CCC(n2nc(-c3cc4c(Cl)ccc(O)c4[nH]3)c3c(N)ncnc32)CC1
IC50: < 0.005 µM
--
Molecule: COc1cc2cc(-c3nn(C(C)C)c4ncnc(N)c34)[nH]c2cc1Cl
IC50: > 0.5 µM
--
Molecule: CC(C)n1nc(-c2cc3c(Cl)ccc(O)c3[nH]2)c2c(N)ncnc21
IC50: < 0.01 µM
--
Molecule: CNC(=O)Cn1nc(-c2cc3cc(O)ccc3[nH]2)c2c(N)ncnc21
IC50: > 0.5 µM
--
Molecule: CCOC(=O)Cn1nc(-c2cc3cc(O)ccc3[nH]2)c2c(N)ncnc21
IC50: < 0.5 µM

Ask: Complete the entry with IC50 for Nc1ncnc2c1c(-c1cc3cc(O)ccc3[nH]1)nn2C1CCN(C(=O)C2CC2)CC1
Reply: < 0.025 µM

Ask: For the molecule Nc1ncnc2c1c(-c1cc3cccc(Cl)c3[nH]1)nn2C1CCOCC1 , give its measured IC50 value.
Reply: < 0.05 µM

Ask: Please give measured IC50 of the following entry: CC(C)n1nc(-c2cc3cccc(Cl)c3[nH]2)c2c(N)ncnc21
Reply: < 0.05 µM

Ask: Fill in IC50 for record COc1cccc2cc(-c3nn(C4CCOCC4)c4ncnc(N)c34)[nH]c12
Reply: < 0.005 µM

Ask: Indicate its recorded IC50; the molecule in question is Nc1ncnc2c1c(-c1cc3cc(O)ccc3[nH]1)nn2C1CCOCC1
Reply: < 0.005 µM

Ask: Let me know recorded IC50 for CC(=O)N1CCC(n2nc(-c3cc4cc(O)cc(Cl)c4[nH]3)c3c(N)ncnc32)CC1 , thanks.
Reply: < 0.005 µM

Ask: Input Nc1ncnc2c1c(-c1cc3cc(O)ccc3[nH]1)nn2C1CCC(N2CCOCC2)CC1 (centres unmarked) , output reported IC50.
Reply: < 0.025 µM

Ask: State its IC50 for this molecule: CC(=O)N1CCC(n2nc(-c3cc4ccc(O)cc4[nH]3)c3c(N)ncnc32)CC1
Reply: < 0.01 µM

Ask: Kindly indicate its recorded IC50. Item: Nc1ncnc2c1c(-c1cc3cc(O)ccc3[nH]1)nn2C1CC(N2CCOCC2)C1 (centres unmarked)
Reply: < 0.01 µM

Ask: Return value of IC50 for input CC(C)N1CCC(n2nc(-c3cc4cccc(O)c4[nH]3)c3c(N)ncnc32)CC1 , no commentary.
Reply: < 0.025 µM

Ask: Fill in reported IC50 for this entry: Cc1nccn1CCn1nc(-c2cc3cc(O)ccc3[nH]2)c2c(N)ncnc21
Reply: < 0.1 µM

Ask: Please report IC50 for the following molecule: CC(C)n1nc(-c2cc3cc(O)ccc3[nH]2)c2c(N)nccc21
Reply: > 0.5 µM

Attribution: patent US9295673B2
